- Tested on: HS 578T breast
- experiment: NCI tumour cell line growth inhibition, 48 h
Entries and their GI50 values follow.
metric: GI50

>>> recorded_result("CCOC(=O)c1c(Cl)c2c(n1Cc1cccc(OC)c1)-c1oncc1CC2")
"1.21 µM"
>>> recorded_result("COc1nc(N)nc2c1ncn2[C@@H]1O[C@H](CO)[C@@H](O)[C@@H]1O")
"> 100 µM"
>>> recorded_result("Cn1ccnc1C(=O)/C=C/c1ccc(CC(=O)Nc2ccc(F)cc2)cc1")
"15 µM"
>>> recorded_result("O=C(NCCNc1nccc(-c2c(-c3cccc(O)c3)nc3sccn23)n1)Nc1cccc(C(F)(F)F)c1")
"3.56 µM"
>>> recorded_result("COc1ccc2c(c1)/C(=C\\c1c(Cl)n(C)c3ccccc13)C(=O)N2")
"1.44 µM"
>>> recorded_result("O=C1/C(=C/c2ccccc2F)CN(C(=O)C(Cl)Cl)C/C1=C\\c1ccccc1F")
"0.985 µM"
>>> recorded_result("O=C(Cc1ccccc1)NC(c1ccc(Cl)cc1)c1c(O)ccc2ccccc12 (stereo unspecified)")
"2.81 µM"
>>> recorded_result("NC1=CC(=O)c2nc3ccccc3c3ccnc1c23")
"0.766 µM"
>>> recorded_result("Cc1cc(C)c2nc3nc(C)cc(C)c3c(N)c2c1")
"12.7 µM"
>>> recorded_result("N#C/C(=C1C=C/C(=N\\O)C(Cl)=C\\1)c1ccccc1")
"3.58 µM"
>>> recorded_result("COc1ccc(OC)c(/C=C2\\COc3ccc(O)c(O)c3C2=O)c1")
"5.3 µM"
>>> recorded_result("COc1cc(/C=C2\\C(=O)N(c3ccccc3)c3ccccc32)cc(OC)c1OC")
"28.2 µM"
>>> recorded_result("Cc1cc2cc3cc(C)c(N)cc3[n+](C)c2cc1N")
"1.12 µM"
>>> recorded_result("CCN(CC)CCCCNc1ncc2cc(-c3cc(OC)cc(OC)c3)c(NC(=O)NC(C)(C)C)nc2n1")
"4.72 µM"
>>> recorded_result("CC(=O)OC1Oc2cc(C)c(C)cc2-c2oc(=O)c(-c3ccc(F)cc3)cc21 (stereo unspecified)")
"8.56 µM"
>>> recorded_result("O=C1CC[C@H](c2ccc(O)c3c2C(=O)[C@@H]2O[C@@H]2C3=O)c2cccc(O)c21")
"3.78 µM"
>>> recorded_result("COC1=CC(c2ccc[nH]2)=N/C1=C\\c1[nH]c(C)c(C(C)=O)c1C")
"0.552 µM"
>>> recorded_result("O=C(CN1C(=O)S/C(=C\\C(Cl)=C\\c2ccccc2)C1=O)NCCc1ccc(O)cc1")
"2.72 µM"
>>> recorded_result("O=C(NCCNc1nccc(-c2c(-c3ccc(F)cc3)nc3sccn23)n1)c1ccccc1")
"20.4 µM"
>>> recorded_result("N=c1n(Cc2ccccc2)c(N)cc(=O)n1Cc1ccccc1")
"1.04 µM"
>>> recorded_result("O=S(=O)(CCNCc1ccc(-c2ccc3ncnc(Nc4ccc(OCc5cccc(F)c5)c(Cl)c4)c3c2)o1)c1ccccc1")
"> 25 µM"

----------
Entries and their TGI values follow.
- Tested on: SNB-19 CNS
- experiment: NCI tumour cell line growth inhibition, 48 h
Where a SMILES comes first, the peptide text is derived from it.
metric: TGI

>>> recorded_result("CO/N=C(\\C(=O)Nc1cncs1)c1csc(N)n1")
"> 10 µM"
>>> recorded_result("COc1ccc(C(=O)CC(=O)C(=O)Nc2ccc(C)c(C)c2)cc1")
"> 100 µM"
>>> recorded_result("CC1OC(n2c3ccccc3c3c4c(c5c6ccccc6[nH]c5c32)C(=O)N(CCN2CCOCC2)C4=O)CC(O)C1O (centres undefined)")
"17.8 µM"
>>> recorded_result("N#C/C(C(=S)Nc1ccccc1)=C(/N)N1CCCC1")
"> 100 µM"
>>> recorded_result("COC1OC(COS(=O)(=O)c2ccc(C)cc2)C(O)C(OS(=O)(=O)c2ccc(C)cc2)C1OS(=O)(=O)c1ccc(C)cc1 (centres undefined)")
"> 100 µM"
>>> recorded_result("CCC1CC(C)=CCN1S(=O)(=O)c1ccc(C)cc1 (centres undefined)")
"> 100 µM"
>>> recorded_result("CNC(=O)CNC(=O)C(NC(=O)CNC(=O)C1CCCN1C(=O)C(C)NC(=O)C(NC(C)=O)C(C)C)C(C)C (centres undefined) (Ac-VAPGVG-NHMe; configuration not given here)")
"> 100 µM"
>>> recorded_result("COC(=O)CS(=O)c1ccccc1 (centres undefined)")
"> 100 µM"
>>> recorded_result("O=C1OC(c2ccccc2)=N/C1=C\\c1cc(Cl)ccc1Cl")
"> 100 µM"
